B1: SMOC2 (parent)
chain: PALETQPQGDEEDIASRYPTLWTE

- Variants of: B1
- run description: protein stability index of a GFP-peptide fusion (GPS, HEK-293T) (PSI 1-6); higher = more stable;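 note: lentivirally expressed fusions sorted by FACS into six bins by GFP to DsRed ratio, PSI derived from sequencing read proportions per bin multiplied by bin number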
- measurement context: c terminus: a fixed tail appended
Hi there, I'd appreciate the recorded protein stability index for every entry that follows.

Q: What measured protein stability index goes with PALETQPQGDEEDIASRYPTLSTE [W22S] ?
A: 5.77

Q: Next: PALETQPQGDEEDIAIRYPTLWTE [S16I]
A: 4.52

Q: Next: PALETQCQGDEEDIASRYPTLWTE [P7C]
A: 4.46

Q: Next: PALETQPQGDEWDIASRYPTLWTE [E12W]
A: 3.39

Q: Next: PALETMPQGDEEDIASRYPTLWTE [Q6M]
A: 4.13

Q: Next: PALETQPCGDEEDIASRYPTLWTE [Q8C]
A: 5.05

Q: Next: PALETQPQGDGEDIASRYPTLWTE [E11G]
A: 4.04

Q: Next: PHLETQPQGDEEDIASRYPTLWTE [A2H]
A: 4.74

Q: Next: PALETQPQGDWEDIASRYPTLWTE [E11W]
A: 3.96

Q: Next: PALETQPQGDEEDIYSRYPTLWTE [A15Y]
A: 4.53

Q: Next: PALETQPQGDEEDIAPRYPTLWTE [S16P]
A: 5.27
